Origin of the recorded values: patent US8198325B2

Test system: Human epidermal keratinocyte (HEK)
Assay: Cytotoxicity test (cell survival), MTT assay, HEK
Assay type: cell-based
Conditions: 0.05 mM, 24 hours, 570 nm
Note to self: values exactly at 3 OD are 1.0. So MTT absorbance (OD) at or above 3 OD is 1.0, below is 0.0.

Reported MTT absorbance (OD) reaches at least 3 OD for `C=CCCCCOC(=O)CCC(=O)CN` ?
1.0

Decide: MTT absorbance (OD) of `NCC(=O)CCC(=O)O` >= 3 OD?
1.0

Item `C=CCCCOC(=O)CCC(=O)CN` with MTT absorbance (OD) of 3 OD or above?
0.0

Item `C=CCCOC(=O)CCC(=O)CN` with MTT absorbance (OD) of 3 OD or above?
1.0

For this compound, is measured MTT absorbance (OD) 3 OD or higher? COC(=O)CCC(=O)CN [ALA-1, 5-Aminolevulinic acid methyl ester, reference compound]
1.0

----------
System: Squamous cell carcinoma (A431)
Assay: Cytotoxicity test (cell survival), MTT assay, A431
Format: cell-based
Conditions: A431, 1 mM, 24 hours
recorded_metric: Cell survival Avg (%) ± SD (%)
One number for each entry, in %.

Observe how each entry below is paired with its result.
[[record]]
compound = "NCC(=O)CCC(=O)O"
result_number = 84.17

[[record]]
compound = "COC(=O)CCC(=O)CN [ALA-1, 5-Aminolevulinic acid methyl ester, reference compound]"
result_number = 101.45

[[record]]
compound = "C=CCCOC(=O)CCC(=O)CN"
result_number = 97.65


Your task in this section: give Cell survival Avg (%) ± SD (%) for each listed record.
1. C=CCCCOC(=O)CCC(=O)CN
2. C=CCCCCOC(=O)CCC(=O)CN

1: 80.11; 2: 88.47

----------
Test system: Human dermal fibroblast (hF)
Assay: Cytotoxicity test (cell survival), MTT assay, hF
Type: cell-based
Settings: 0.01 mM, 24 hours
recorded_metric: Cell survival Avg (%) ± SD (%)
One number for each entry, in %.

Answered cases to consult:
[[record]]
compound = "COC(=O)CCC(=O)CN [ALA-1, 5-Aminolevulinic acid methyl ester, reference compound]"
recorded_metric = "Cell survival Avg (%) ± SD (%)"
result_number = 110.33

[[record]]
compound = "C=CCCCCOC(=O)CCC(=O)CN"
recorded_metric = "Cell survival Avg (%) ± SD (%)"
result_number = 113.29

[[record]]
compound = "NCC(=O)CCC(=O)O"
recorded_metric = "Cell survival Avg (%) ± SD (%)"
result_number = 109.74

[[record]]
compound = "C=CCCOC(=O)CCC(=O)CN"
recorded_metric = "Cell survival Avg (%) ± SD (%)"
result_number = 114.28


Then this compound:
Item under review: `C=CCCCOC(=O)CCC(=O)CN` . Reported Cell survival Avg (%) ± SD (%)?
101.13

----------
Tested on: Human epidermal keratinocyte (HEK)
Experiment: Cytotoxicity test (cell survival), MTT assay, HEK
Format: cell-based
Settings: 5 mM, 24 hours, 570 nm
recorded_metric: MTT absorbance (OD)

Solved entries (count: 4):
[[record]]
molecule = "NCC(=O)CCC(=O)O"
recorded_metric = "MTT absorbance (OD)"
result = "1.659 OD"

[[record]]
molecule = "C=CCCCCOC(=O)CCC(=O)CN"
recorded_metric = "MTT absorbance (OD)"
result = "1.388 OD"

[[record]]
molecule = "C=CCCOC(=O)CCC(=O)CN"
recorded_metric = "MTT absorbance (OD)"
result = "2.101 OD"

[[record]]
molecule = "C=CCCCOC(=O)CCC(=O)CN"
recorded_metric = "MTT absorbance (OD)"
result = "1.354 OD"


# evaluate next
Would you mind telling me what MTT absorbance (OD) value was observed for COC(=O)CCC(=O)CN [ALA-1, 5-Aminolevulinic acid methyl ester, reference compound] ?
2.398 OD
